Tested on: YAPC (Pancreatic Carcinoma)
measurement_notes: Bliss excess, mean over the matrix (fraction); higher = more synergy;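 also: after 72 h of two-drug dosing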
Output fulfilled for Bliss excess not less than -0.01; output not fulfilled otherwise.

Recorded results for 3 compounds are shown here.
compound	qualitative_label
CC1(C)CCC(CN2CCN(c3ccc(C(=O)NS(=O)(=O)c4ccc(NCC5CCOCC5)c([N+](=O)[O-])c4)c(Oc4cnc5[nH]ccc5c4)c3)CC2)=C(c2ccc(Cl)cc2)C1 [Venetoclax] + C[C@@H](Nc1cc(F)cc(F)c1)c1cc(C(=O)N(C)C)cc2c(=O)cc(N3CCOCC3)oc12 [AZD8186] (first compound max 1 µM, 7x7, partner max 3 µM)	not fulfilled
CN(CCO)CC[C@H](CSc1ccccc1)Nc1ccc(S(=O)(=O)NC(=O)c2ccc(N3CCC([C@@H](O)c4ccccc4-c4ccc(Cl)cc4)CC3)cc2)cc1S(=O)(=O)C(F)(F)F [AZD4320] + C[C@@H]1COCCN1C2=NC(=NC(=C2)C3(CC3)[S@](=N)(=O)C)C4=C5C=CNC5=NC=C4 [AZD6738] (first compound max 1 µM, 7x7, partner max 10 µM)	not fulfilled
COc1nnc2ccc(N3CCC(c4ccc(OCCN5CCN(C)C(=O)[C@H]5C)cc4)CC3)nn12 [AZD5153] + C=CCn1c(=O)c2cnc(Nc3ccc(N4CCN(C)CC4)cc3)nc2n1-c1cccc(C(C)(C)O)n1 [AZD1775] (first compound max 1 µM, partner max 1 µM)	not fulfilled

Consider the additional compound presented here.
Does the reported Bliss excess for C[C@@H](Oc1cc(-c2cnn(C3CCNCC3)c2)cnc1N)c1c(Cl)ccc(F)c1Cl [Crizotinib] + CC1=C(C(=CC=C1)Cl)NC(=O)C2=CN=C(S2)NC3=CC(=NC(=N3)C)N4CCN(CC4)CCO [Dasatinib] (first compound max 10 µM, 7x7, partner max 2 µM) fall at or above the -0.01 mark?
fulfilled

---

Test system: FTC-133 (Thyroid Gland Carcinoma)
measurement_notes: Bliss excess, mean over the matrix (fraction); higher = more synergy
measurement_name: Bliss excess

The following molecules have reported results that may help.
molecule	Bliss excess
Cc1c2c(nn1C)CSCc1cc(n(C)n1)CSc1cc(c3ccccc3c1)OCCCc1c(C(=O)O)n(C)c3c-2c(Cl)ccc13 [AZD5991] + CCN(CCO)CCCOc1ccc2c(Nc3cc(CC(=O)Nc4cccc(F)c4)[nH]n3)ncnc2c1 [AZD2811] (first compound max 1 µM, 7x7, partner max 1 µM)	0.0074
C[C@@H](c1ccc2nccn2c1)n1nnc2ncc(-c3cnn(C)c3)nc21 [Savolitinib] + CN(CC[C@H](CSC1=CC=CC=C1)NC2=C(C=C(C=C2)S(=O)(=O)NC(=O)C3=CC=C(C=C3)N4CCC(CC4)[C@H](C5=CC=CC=C5C6=CC=C(C=C6)Cl)O)S(=O)(=O)C(F)(F)F)CCO [AZD4320] (first compound max 1 µM, 7x7, partner max 1 µM)	-0.056
CN(CCO)CC[C@H](CSc1ccccc1)Nc1ccc(S(=O)(=O)NC(=O)c2ccc(N3CCC([C@@H](O)c4ccccc4-c4ccc(Cl)cc4)CC3)cc2)cc1S(=O)(=O)C(F)(F)F [AZD4320] + C[C@@H]1COCCN1C2=NC(=NC(=C2)C3(CC3)[S@](=N)(=O)C)C4=C5C=CNC5=NC=C4 [AZD6738] (first compound max 1 µM, 7x7, partner max 10 µM)	0.0324

For Cc1c2c(nn1C)CSCc1cc(n(C)n1)CSc1cc(c3ccccc3c1)OCCCc1c(C(=O)O)n(C)c3c-2c(Cl)ccc13 [AZD5991] + C1CN(CCC1(C(=O)N[C@@H](CCO)C2=CC=C(C=C2)Cl)N)C3=NC=NC4=C3C=CN4 [Capivasertib] (first compound max 1 µM, 7x7, partner max 3 µM) , what is its reported Bliss excess?
0.0062

For COc1cc2ncnc(Nc3ccc(F)c(Cl)c3)c2cc1OCCCN1CCOCC1 [Gefitinib] + CC(C)n1c(=O)n(C)c2cnc3cc(F)c(-c4ccc(OCCCN5CCCCC5)nc4)cc3c21 [AZD1390] (first compound max 10 µM, 7x7, partner max 0.3 µM) , what is its reported Bliss excess?
-0.0752

For CN(C)CCCOc1ccc(-c2ccc3ncc4c(c3c2)n(C2CCOCC2)c(=O)n4C)cn1 [AZD0156] + C=CCn1c(=O)c2cnc(Nc3ccc(N4CCN(C)CC4)cc3)nc2n1-c1cccc(C(C)(C)O)n1 [AZD1775] (first compound max 1 µM, partner max 1 µM) , what is its reported Bliss excess?
-0.0416

For COc1nnc2ccc(N3CCC(c4ccc(OCCN5CCN(C)C(=O)[C@H]5C)cc4)CC3)nn12 [AZD5153] + Cc1c2c(nn1C)CSCc1cc(n(C)n1)CSc1cc(c3ccccc3c1)OCCCc1c(C(=O)O)n(C)c3c-2c(Cl)ccc13 [AZD5991] (first compound max 1 µM, 7x7, partner max 1 µM) , what is its reported Bliss excess?
-0.0112

---

Test system: SW1710 (Bladder Carcinoma)
measurement_notes: Bliss excess, mean over the matrix (fraction); higher = more synergy
measurement_name: Bliss excess
Output spec: single numeric token, no unit.

The following molecules have reported results that may help.
molecule	measurement_name	quantitative_result
CS(=O)(=O)CCNCc1ccc(-c2ccc3ncnc(Nc4ccc(OCc5cccc(F)c5)c(Cl)c4)c3c2)o1 [Lapatinib] + C[C@@H](Oc1cc(-c2cnn(C3CCNCC3)c2)cnc1N)c1c(Cl)ccc(F)c1Cl [Crizotinib] (first compound max 10 µM, 7x7, partner max 10 µM)	Bliss excess	-0.078
C=CCn1c(=O)c2cnc(Nc3ccc(N4CCN(C)CC4)cc3)nc2n1-c1cccc(C(C)(C)O)n1 [AZD1775] + C[C@@H]1COCCN1C2=NC(=NC(=C2)C3(CC3)[S@](=N)(=O)C)C4=C5C=CNC5=NC=C4 [AZD6738] (first compound max 1 µM, partner max 10 µM)	Bliss excess	0.0811
Cc1c2c(nn1C)CSCc1cc(n(C)n1)CSc1cc(c3ccccc3c1)OCCCc1c(C(=O)O)n(C)c3c-2c(Cl)ccc13 [AZD5991] + Nc1ccn([C@@H]2O[C@H](CO)[C@@H](O)C2(F)F)c(=O)n1 [Gemcitabine] (first compound max 1 µM, 7x7, partner max 0.3 µM)	Bliss excess	-0.0571
CCN(CCO)CCCOc1ccc2c(Nc3cc(CC(=O)Nc4cccc(F)c4)[nH]n3)ncnc2c1 [AZD2811] + C[C@@H]1COCCN1C2=NC(=NC(=C2)C3(CC3)[S@](=N)(=O)C)C4=C5C=CNC5=NC=C4 [AZD6738] (first compound max 1 µM, 7x7, partner max 10 µM)	Bliss excess	-0.0975
COc1cccc(OCCCN)c1-c1cc(Nc2cnc(C#N)cn2)n[nH]1 [Prexasertib] + C=CCn1c(=O)c2cnc(Nc3ccc(N4CCN(C)CC4)cc3)nc2n1-c1cccc(C(C)(C)O)n1 [AZD1775] (first compound max 1 µM, partner max 1 µM)	Bliss excess	0.12
Cc1c2c(nn1C)CSCc1cc(n(C)n1)CSc1cc(c3ccccc3c1)OCCCc1c(C(=O)O)n(C)c3c-2c(Cl)ccc13 [AZD5991] + CN(C)CCCOc1ccc(-c2ccc3ncc4c(c3c2)n(C2CCOCC2)c(=O)n4C)cn1 [AZD0156] (first compound max 1 µM, 7x7, partner max 1 µM)	Bliss excess	-0.0134
Cc1c2c(nn1C)CSCc1cc(n(C)n1)CSc1cc(c3ccccc3c1)OCCCc1c(C(=O)O)n(C)c3c-2c(Cl)ccc13 [AZD5991] + Cn1cnc2c(F)c(Nc3ccc(Br)cc3Cl)c(C(=O)NOCCO)cc21 [Selumetinib] (first compound max 1 µM, 7x7, partner max 3 µM)	Bliss excess	-0.0214
CN(CCO)CC[C@H](CSc1ccccc1)Nc1ccc(S(=O)(=O)NC(=O)c2ccc(N3CCC([C@@H](O)c4ccccc4-c4ccc(Cl)cc4)CC3)cc2)cc1S(=O)(=O)C(F)(F)F [AZD4320] + CS(=O)(=O)CCNCc1ccc(-c2ccc3ncnc(Nc4ccc(OCc5cccc(F)c5)c(Cl)c4)c3c2)o1 [Lapatinib] (first compound max 1 µM, 7x7, partner max 10 µM)	Bliss excess	-0.0324

For CC1(C)CCC(CN2CCN(c3ccc(C(=O)NS(=O)(=O)c4ccc(NCC5CCOCC5)c([N+](=O)[O-])c4)c(Oc4cnc5[nH]ccc5c4)c3)CC2)=C(c2ccc(Cl)cc2)C1 [Venetoclax] + C1CN(CCC1(C(=O)N[C@@H](CCO)C2=CC=C(C=C2)Cl)N)C3=NC=NC4=C3C=CN4 [Capivasertib] (first compound max 1 µM, 7x7, partner max 3 µM) , what is its reported Bliss excess?
-0.0896

For Cc1cc2ncnn2cc1Nc1ncc2c(n1)n(C1CCOCC1)c(=O)n2C [AZD7648] + C[C@@H]1COCCN1C2=NC(=NC(=C2)C3(CC3)[S@](=N)(=O)C)C4=C5C=CNC5=NC=C4 [AZD6738] (first compound max 10 µM, 7x7, partner max 10 µM) , what is its reported Bliss excess?
0.0067

For C[C@@H]1COCCN1c1cc(C2([S@](C)(=N)=O)CC2)nc(-c2ccnc3[nH]ccc23)n1 [AZD6738] + Nc1ccn([C@@H]2O[C@H](CO)[C@@H](O)C2(F)F)c(=O)n1 [Gemcitabine] (first compound max 10 µM, 7x7, partner max 0.3 µM) , what is its reported Bliss excess?
0.0769

For COc1cccc(OCCCN)c1-c1cc(Nc2cnc(C#N)cn2)n[nH]1 [Prexasertib] + CN(C)CCCOc1ccc(-c2ccc3ncc4c(c3c2)n(C2CCOCC2)c(=O)n4C)cn1 [AZD0156] (first compound max 1 µM, 7x7, partner max 1 µM) , what is its reported Bliss excess?
-0.022

For C[C@@H](c1ccc2nccn2c1)n1nnc2ncc(-c3cnn(C)c3)nc21 [Savolitinib] + CC1(C)CCC(CN2CCN(c3ccc(C(=O)NS(=O)(=O)c4ccc(NCC5CCOCC5)c([N+](=O)[O-])c4)c(Oc4cnc5[nH]ccc5c4)c3)CC2)=C(c2ccc(Cl)cc2)C1 [Venetoclax] (first compound max 1 µM, 7x7, partner max 1 µM) , what is its reported Bliss excess?
-0.0561
